- System Tested: human MRGPRD (Homo sapiens)
- Sequence (Q8TDS7 whole entry): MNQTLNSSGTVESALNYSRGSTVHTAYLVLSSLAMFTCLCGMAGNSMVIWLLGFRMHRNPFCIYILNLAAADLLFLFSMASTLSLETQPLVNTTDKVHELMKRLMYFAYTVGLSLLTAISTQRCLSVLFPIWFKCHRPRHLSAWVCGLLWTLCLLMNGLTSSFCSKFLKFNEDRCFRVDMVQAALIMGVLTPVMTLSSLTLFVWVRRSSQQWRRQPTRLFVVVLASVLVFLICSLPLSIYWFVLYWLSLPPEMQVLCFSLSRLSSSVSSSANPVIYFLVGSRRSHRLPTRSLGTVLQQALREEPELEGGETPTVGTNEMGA
- Experimental Details: MRGPRD antagonist activity, IP-One HTRF assay in CHO cells stably expressing human MRGPRD (versus 100 μM β-Alanine agonist)
Reported Metric: IC50

These solved cases illustrate the format of a correct answer.
Compound	Recorded Result
CN(C)c1ccc(NC(=O)N2CCC[C@@H](c3nc(-c4ccc(OC(F)(F)F)cc4)c4ccccn34)C2)cc1 [Compound 10-14]	1000 to 3000 nM
COc1cccc(-c2nc([C@@H]3CCCN(C(=O)NCCN4CCOCC4)C3)n3ccccc23)c1 [Compound 10-38]	500 to 1000 nM
COc1ccc(-c2nc([C@H]3CCCN(C(=O)Nc4ccc(N(C)C)cc4)C3)n3ccccc23)cc1 [Compound 10-48]	1000 to 3000 nM
CN(C)c1ccc(NC(=O)N2CCC[C@@H](c3nc(-c4cccc(C(F)F)c4)c4ccccn34)C2)cc1 [Compound 10-16]	100 to 500 nM
CN(C)c1ccc(NC(=O)N2CCC[C@@H](c3nc(-c4cccc(O)c4)c4ccccn34)C2)cc1 [Compound 10-5]	500 to 1000 nM

### Prompt Would you mind telling me what IC50 value was observed for CN(C)c1ccc(NC(=O)N2CCC[C@@H](c3nc(-c4ccccc4CC#N)c4ccccn34)C2)cc1 [Compound 10-65] ?
### Response 500 to 1000 nM

### Prompt CN(C)c1ccc(NC(=O)N2CCC[C@@H](c3nc(-c4cnn(C(F)F)c4)c4ccccn34)C2)cc1 [Compound 10-72] ?
### Response 100 to 500 nM

### Prompt Further, for COc1cccc(-c2nc(C3CCCN(C(=O)Cc4ccccc4OC)C3)n3c(OC)cccc23)c1 (stereo not drawn) [Compound 15-1] ?
### Response 500 to 1000 nM

### Prompt Subsequent entry: COc1cccc(-c2nc(C3CCCN(C(=O)c4cccc(F)c4)C3)n3ccccc23)c1 (stereo not drawn) [Compound 12-6]
### Response 100 to 500 nM

* * *

- System Tested: human MRGPRD (Homo sapiens)
- Experimental Details: MRGPRD antagonist activity, IP-One HTRF assay in CHO cells stably expressing human MRGPRD (versus 100 μM β-Alanine agonist)
- Protocol: Chinese Hamster Ovary (CHO) cells stably expressing human MRGPRD (Eurofins, San Diego CA) were plated in a 384-well plate at 20,000 cells per well in 12 μL of Optimem (Fisher Scientific 11-058-021). Plates were kept in the incubator at 37° C. overnight. […] Assay plates were read on either a Molecular Devices SpectraMax iD5 plate reader or a BMG ClarioStar plate reader. The HTRF ratio was calculated form the raw data and graphed using GraphPad Prism to calculate IC50 values. […]
Reported Metric: IC50

Use these answered entries as a reference point.
Compound	Recorded Result
COc1cccc(-c2nc(C3CCCN(C(=O)Nc4ccc(N(C)C)cc4)C3)n3ccccc23)c1 (centres unmarked)	< 100 nM
COc1ccc(NC(=O)N2CCC[C@H](c3nc(-c4cccc(OC)c4)c4ccccn34)C2)cc1 (stereo in doubt)	1000 to 3000 nM
CCc1cccc(NC(=O)N2CCCC(c3nc(-c4cccc(OC)c4)c4ccccn34)C2)c1 (centres unmarked)	> 3000 nM
CCOc1ccccc1NC(=O)N1CCC[C@@H](c2nc(-c3cccc(OC)c3)c3ccccn23)C1	100 to 500 nM
COc1cccc(-c2nc([C@@H]3CCCN(C(=O)Nc4ccccc4C(F)(F)F)C3)n3ccccc23)c1	100 to 500 nM
CC(C)Oc1cccc(-c2nc([C@@H]3CCCN(C(=O)Nc4ccc(N(C)C)cc4)C3)n3ccccc23)c1	500 to 1000 nM
Cc1cccc(-c2nc(C3CCCN(C(=O)Nc4ccccc4F)C3)n3ccccc23)c1 (centres unmarked)	> 3000 nM
COc1cccc(-c2nc([C@@H]3CCCN(C(=O)Nc4ccccc4OC)C3)n3ccccc23)c1	100 to 500 nM

Please turn your attention to the following entry.
### Prompt # lookup: IC50 of COc1cccc(-c2nc(C3CCCN(C(=O)Nc4ccc(C)c(C)c4)C3)n3ccccc23)c1 (centres unmarked)
### Response 100 to 500 nM
